# Tested on: K-562 leukemia
# MEASUREMENT_NOTES: NCI tumour cell line growth inhibition, 48 h
Measured TGI accompanies every entry in the list below.
REPORTED_PROPERTY: TGI

molecule=CC(=O)OC/C=C\Cn1nc(Br)c(=O)[nH]c1=O meas_value="26.5 µM"
molecule="CC1CCC2(C(=O)O)CCC3(C)C(=CCC4C5(C)CCC(O)C(C)(C)C5CCC43C)C2C1C (configuration not stated)" meas_value="15.6 µM"
molecule="CN(C)CCN=C1Nc2ccccc2C(=S)N2CSCC12 (configuration not stated)" meas_value="> 100 µM"
molecule=COc1ccc(C(=O)COC(=O)[C@H](C[Se][Se]C[C@H](NC(=O)c2ccc(Br)cc2F)C(=O)OCC(=O)c2ccc(OC)cc2)NC(=O)c2ccc(Br)cc2F)cc1 meas_value="> 55 µM"
molecule=CN(NC(=O)c1cccs1)C1=NCCCCN1 meas_value="> 100 µM"
molecule="Cc1ccc(C(SCC(N)C(=O)O)(c2ccc(C)cc2)c2ccc(C)cc2)cc1 (configuration not stated)" meas_value="12.3 µM"
molecule=CC(C)(C)OC(=O)NCCc1cccc2c1oc1c(CCC(=O)O)cccc12 meas_value="> 100 µM"
molecule="COC1C=COC2(C)Oc3c(C)c(O)c4c(O)c(c(/C=N/N5CCN(N)CC5)c(O)c4c3C2=O)NC(=O)C(C)=CC=CC(C)C(O)C(C)C(O)C(C)C(OC(C)=O)C1C (configuration not stated)" meas_value="> 100 µM"
molecule=Cc1[nH]nc(N)c1C(N)=O meas_value="> 100 µM"
molecule=Cc1nc(N/N=C/c2ccccc2Cl)[nH]c(=O)c1CCO meas_value="> 100 µM"
molecule="CCCC(=O)NC1CCc2cc(OC)c(OC)c(OC)c2-c2ccc(OC)c(=O)cc21 (configuration not stated)" meas_value="> 100 µM"
molecule=Cc1cc(O)ccc1C1=NN(c2ccc(S(C)(=O)=O)cc2)C(=O)CC1 meas_value="> 100 µM"
molecule="CCN1C(=O)C(C)S/C1=N\\NC(=O)CSc1nc2ccccc2c(=O)n1CC (configuration not stated)" meas_value="> 100 µM"
molecule="C/C=C/C1=CC(=O)C(O)C1O (configuration not stated)" meas_value="179 µM"
molecule="Clc1cc(Cl)cc(C2ON=C(c3ccccc3)N2C23CC4CC(CC(C4)C2)C3)c1 (configuration not stated)" meas_value="> 10 µM"
molecule=COc1ccc(/C(O)=C/c2nc3cccnc3nc2/C=C(\O)c2ccc(OC)cc2)cc1 meas_value="> 100 µM"
molecule="COC(=O)/C=C1/CCC(C)(C(=O)NS(=O)(=O)c2ccc(C)cc2)C1(C)C (configuration not stated)" meas_value="> 100 µM"
molecule="CC(NC(=O)C(N)CC(=O)O)NC(=O)C1CCC1 (configuration not stated)" meas_value="> 100 µM"
molecule=Clc1ccc2c(c1)N(c1ncnc3ccc(-c4cnc5[nH]ccc5c4)cc13)CC2 meas_value="> 100 µM"
molecule=O=[N+]([O-])c1ccccc1N/N=C\c1c[nH]c2ccccc12 meas_value="> 100 µM"
molecule=Nc1nc(OCc2cc(Br)cs2)c2[nH]cnc2n1 meas_value="> 100 µM"
molecule=CC(=O)Nc1ccc(-c2nc3ccccc3s2)cc1I meas_value="> 100 µM"

====

# System: KM12 colon
# MEASUREMENT_NOTES: NCI tumour cell line growth inhibition, 48 h
REPORTED_PROPERTY: TGI (µM)

molecule=CCN(CC)CCOc1ccccc1/C=C/c1noc2ccccc12 test_target="KM12 colon" output_unit=µM result_qualifier== meas_value=31.5
molecule="CC(NC(=O)c1ccccc1)NC(=O)C(C)C(=O)Nc1ccccc1 (stereo unspecified)" test_target="KM12 colon" output_unit=µM result_qualifier=> meas_value=100
molecule=COC(=O)/C=C(\C(=O)OC)c1c2c3c(cc(OC)c(OC)c3c3ccccc13)CCN2C test_target="KM12 colon" output_unit=µM result_qualifier=> meas_value=100
molecule=CN(Cc1cc(Br)cc(Br)c1O)Cc1cc(Br)cc(Br)c1O test_target="KM12 colon" output_unit=µM result_qualifier== meas_value=16.4
molecule=O=C1NC(=O)C2(CCCCCC2)N1 test_target="KM12 colon" output_unit=µM result_qualifier=> meas_value=100
molecule=NC(N)=N/N=C/c1c(-c2cc(Cl)sc2Cl)nc2sccn12 test_target="KM12 colon" output_unit=µM result_qualifier== meas_value=2.75
